Reported values of activity change, negative = inhibition for individual entries
# ASSAY METHOD TEXT: qHTS Assay for Lipid Storage Modulators (AID 1519); further: on the % scale 0 is the no-effect control and ±100 the full control effect
# CONDITION SET: Drosophila S3 cells, BODIPY lipid droplet/cell ratio, laser cytometry; at 25.7 µM (top of the series); cells loaded with oleic acid
Results filed as inconclusive are left out.

MOLECULE	activity change, negative = inhibition / %
CCN1CCC[C@H]1CNC(=O)c1cc(S(N)(=O)=O)ccc1OC	-2.7
C[C@@H](O)[C@H]1C(=O)N2C(C(=O)O)=C(S[C@@H]3CN[C@H](C(=O)N(C)C)C3)[C@H](C)[C@H]12	-1.28
CC(=O)CCCCn1c(=O)c2c(ncn2C)n(C)c1=O	-2.17
CC(C)OC(=O)C(C)(C)Oc1ccc(C(=O)c2ccc(Cl)cc2)cc1	-4.12
COc1ccc2c3c1OC1C[C@@H](O)C=C[C@@]31CCN(C)C2 (stereo not given in full)	-1.59

* * *

# ASSAY METHOD TEXT: Quantitative High-Throughput drug screen in 47 multiple myeloma cell lines against the NCATS MIPE library collection: OCIMY5_PLB cell viability assay (AID 1918988); further: nearly all actives have a fitted effect of over 65% in size
# CONDITION SET: OCI-MY5 myeloma viability, ATP luminescence, 48 h; series mostly up to 45.8 µM
# Excerpt: PI: Beverly A. Mock Ph.D. Laboratory of Cancer Biology and Genetics, Center for Cancer Research, National Cancer Institute, National Institute of Health, Bethesda, Maryland […] 5; Detector; 425V; Luminescence; Viewlux PerkinElmer. […] 1. […] Briefly, the corresponding myeloma cell lines were screened in 1,536-well plates with 500 cells, 5-uL per well for inhibition of cell viability (assessed by measuring ATP levels with CellTiterGlo). […]
Inconclusive results are not listed. Activity calls are given as the source filed them. Calls come from the whole dose curve; as a rule, active = well fitted cell-killing curve with a large enough effect; inconclusive = small, poorly fitted or top-dose-only effect, or effect the other way; inactive = no such curve, though single readings can be large or run the other way.
Possible outcomes: active, inactive

COMPOUND	CLASSIFICATION
O=C1NC(=O)C(=Cc2cccc(C(F)(F)F)c2)S1	active
COCCOc1nc(-c2ccc(Cl)c(Cl)c2)n(-c2ccc(NC(=O)CCl)cc2)n1	active
O=C(CCc1ccc(O)cc1)c1c(O)cc(O)cc1O[C@@H]1O[C@H](CO)[C@H](O)[C@H](O)[C@H]1O	inactive
NC(CO)(CO)CCc1ccc(Sc2cccc(OCc3ccccc3)c2)cc1Cl	active
N[C@H](CSC(c1ccccc1)(c1ccccc1)c1ccccc1)C(=O)O	active
CC1(C)CCC2=C(O1)c1ccccc1C(=O)C2=O	active
CC(C)=CC[C@@H](O)C1=CC(=O)c2c(O)ccc(O)c2C1=O	active
C=CCc1ccc(O)c(-c2ccc(O)c(CC=C)c2)c1	active
CCC(=O)NC[C@H](Cc1ccc(OCCc2nc(-c3ccccc3)oc2C)cc1)NC(C)=CC(=O)c1ccc(C(F)(F)F)cc1	active
COc1cc2nc(-c3ccc(N4CCN(C)CC4)cc3)nc(NCCN3CCOCC3)c2cc1OC	active
Cc1ccc(C(=O)Nc2cccc(C(F)(F)F)c2)cc1Nc1nc(-c2cccnc2)nc2c1cnn2C	active
CO[C@@H](C(=O)N1Cc2[nH]nc(NC(=O)c3ccc(N4CCN(C)CC4)cc3)c2C1)c1ccccc1	active
COc1ccc2cc(-c3nc(-c4ccc(S(C)=O)cc4)[nH]c3-c3ccncc3)ccc2c1 (stereo not drawn)	active
C[C@]12CC[C@@H]3c4ccc(O)cc4CC[C@H]3[C@H]1C[C@@H](O)[C@H]2O	active
CC[C@@H]1C=C(C)C[C@H](C)C[C@H](OC)[C@H]2O[C@@](O)(C(=O)C(=O)N3CCCC[C@@H]3C(=O)O[C@H](C(C)=C[C@@H]3CC[C@H](Cl)[C@H](OC)C3)[C@H](C)[C@@H](O)CC1=O)[C@H](C)C[C@H]2OC	active
O=C(O)c1c(Cl)c(Cl)c(Cl)c(Cl)c1-c1c2cc(I)c(=O)c(I)c-2oc2c(I)c(O)c(I)cc12	active
O=C(NCc1ccncc1)C12C[C@H]3C[C@@H](C1)CC(c1ccc(Cl)cc1)(C3)C2	active
CC(=O)O[C@]1(C(C)=O)CC[C@@H]2[C@@H]3C[C@H](C)C4=CC(=O)CC[C@]4(C)[C@H]3CC[C@@]21C	active
